# test.summary: Plasma concentration in dual transgenic mouse expressing human CETP/ApoB-100 at 1 mg/kg, po measured at 4 hrs post dose
# Assay type: ADME, organism-based
metric.name: concentration at 4 h (nM)
Express it in nM; write the number only.

get_value(item= CC(C)Oc1cc([C@@](Cc2ccccc2)(NC[C@H](O)CC(F)(F)F)c2cc(F)cc(OC(F)(F)C(F)F)c2)ccc1F , readout=concentration at 4 h) returns 54

----------
# measurement.target: Voltage-gated inwardly rectifying potassium channel KCNH2 (Homo sapiens)
# Sequence (Q12809 whole entry): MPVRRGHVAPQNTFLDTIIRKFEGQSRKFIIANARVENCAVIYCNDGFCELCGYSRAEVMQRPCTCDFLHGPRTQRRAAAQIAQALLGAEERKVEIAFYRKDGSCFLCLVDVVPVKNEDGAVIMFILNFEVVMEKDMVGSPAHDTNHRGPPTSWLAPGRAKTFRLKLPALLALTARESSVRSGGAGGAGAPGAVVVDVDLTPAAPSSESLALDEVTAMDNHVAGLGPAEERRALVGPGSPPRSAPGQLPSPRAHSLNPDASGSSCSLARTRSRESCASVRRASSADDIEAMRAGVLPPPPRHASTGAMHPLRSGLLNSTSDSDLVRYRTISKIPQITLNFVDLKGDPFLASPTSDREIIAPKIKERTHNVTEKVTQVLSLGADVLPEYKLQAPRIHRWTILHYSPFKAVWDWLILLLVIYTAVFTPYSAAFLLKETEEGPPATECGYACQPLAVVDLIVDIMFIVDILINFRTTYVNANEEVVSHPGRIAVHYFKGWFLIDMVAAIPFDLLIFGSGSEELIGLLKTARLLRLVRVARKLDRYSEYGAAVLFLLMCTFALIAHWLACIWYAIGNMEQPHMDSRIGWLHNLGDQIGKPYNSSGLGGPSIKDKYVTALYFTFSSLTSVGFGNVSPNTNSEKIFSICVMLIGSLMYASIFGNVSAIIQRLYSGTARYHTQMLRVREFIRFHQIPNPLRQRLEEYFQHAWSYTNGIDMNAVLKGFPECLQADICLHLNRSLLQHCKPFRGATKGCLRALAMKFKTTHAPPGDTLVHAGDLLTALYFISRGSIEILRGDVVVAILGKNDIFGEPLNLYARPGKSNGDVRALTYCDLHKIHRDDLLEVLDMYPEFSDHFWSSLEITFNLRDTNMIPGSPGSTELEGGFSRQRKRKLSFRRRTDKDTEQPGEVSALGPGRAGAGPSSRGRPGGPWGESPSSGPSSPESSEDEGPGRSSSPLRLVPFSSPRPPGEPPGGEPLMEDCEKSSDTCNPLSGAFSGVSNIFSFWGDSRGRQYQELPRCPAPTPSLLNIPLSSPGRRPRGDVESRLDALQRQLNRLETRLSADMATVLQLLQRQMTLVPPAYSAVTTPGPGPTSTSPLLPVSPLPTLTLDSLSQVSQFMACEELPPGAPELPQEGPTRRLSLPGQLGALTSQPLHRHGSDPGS
# test.summary: Inhibition of recombinant human ERG expressed in HEK293 cells assessed as inhibition of peak tail current by patch clamp assay
# Type: cell-based
metric.name: IC50
For clarity, give the value followed by its unit.

Tested on Voltage-gated inwardly rectifying potassium channel KCNH2 (Homo sapiens), the item CC(C)Oc1cc([C@@](Cc2ccccc2)(NC[C@H](O)CC(F)(F)F)c2cc(F)cc(OC(F)(F)C(F)F)c2)ccc1F showed IC50 equal to 25.6 µM

----------
# test.summary: Plasma concentration in dual transgenic mouse expressing human CETP/ApoB-100 at 10 mg/kg, po measured at 8 hrs post dose
# Type: ADME, organism-based
metric.name: concentration at 8 h (nM)
Use nM as the unit, but write only the number.

Lookup result for CC(C)Oc1cc([C@@](Cc2ccccc2)(NC[C@H](O)CC(F)(F)F)c2cc(F)cc(OC(F)(F)C(F)F)c2)ccc1F ; measured concentration at 8 h: 92

----------
Entries and their remaining at 10 min, 3 µM values follow.
# test.summary: Metabolic stability in human liver microsomes assessed as compound remaining at 3 uM after 10 mins by UV absorbance method
# Type: ADME
# measurement.context: read-out: Stability
Kindly provide the numeric value in % only, without the unit symbol.

OC(CN[C@@](Cc1ccccc1)(c1cc(F)cc(OC(F)(F)C(F)F)c1)c1ccc(Cl)cn1)CC(F)(F)F (stereo partly drawn) ... 100
O=C(N[C@@](Cc1ccccc1)(c1cc(F)cc(C(F)(F)F)c1)c1ccc(Cl)cn1)c1ccc(F)c(C(F)(F)F)c1 ... 93

Here is the next item to consider.
What the record says about CC(C)Oc1cc([C@@](Cc2ccccc2)(NC[C@@H](O)C(F)(F)F)c2cc(F)cc(OC(F)(F)C(F)F)c2)ccc1F : remaining at 10 min, 3 µM is 83

----------
# test.summary: AUC (0 to 8 hrs) in dual transgenic mouse plasma expressing human CETP/ApoB-100 at 1 mg/kg, po
# Assay type: ADME, organism-based
# Set-up: time < 8 hr, dose 1 mg/kg, route oral
metric.name: AUC(0-t) at 8 h

AUC(0-t) at 8 h in this record for CC(C)Oc1cc([C@@](Cc2ccccc2)(NC[C@H](O)CC(F)(F)F)c2cc(F)cc(OC(F)(F)C(F)F)c2)ccc1F : 0.543 µM·h

----------
pIC50 listing for selected molecules.
# measurement.target: Cholesteryl ester transfer protein (Homo sapiens)
# Sequence (P11597 whole entry): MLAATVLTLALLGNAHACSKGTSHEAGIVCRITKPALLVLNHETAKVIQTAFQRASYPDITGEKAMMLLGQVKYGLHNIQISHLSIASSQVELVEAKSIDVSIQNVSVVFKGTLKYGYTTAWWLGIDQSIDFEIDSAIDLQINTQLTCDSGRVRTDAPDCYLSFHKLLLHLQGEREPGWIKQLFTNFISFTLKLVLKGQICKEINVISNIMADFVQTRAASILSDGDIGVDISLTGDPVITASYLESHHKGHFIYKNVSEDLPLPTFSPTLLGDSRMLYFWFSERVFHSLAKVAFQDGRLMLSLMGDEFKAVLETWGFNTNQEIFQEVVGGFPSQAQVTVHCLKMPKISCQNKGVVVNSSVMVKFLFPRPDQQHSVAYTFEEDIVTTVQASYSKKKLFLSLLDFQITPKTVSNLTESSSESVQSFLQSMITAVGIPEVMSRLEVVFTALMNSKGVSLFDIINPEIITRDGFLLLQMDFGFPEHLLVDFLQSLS
# test.summary: Inhibition of CETP in human whole plasma assessed as reduction in [3H]cholesteryl ester transfer from [3H]CE-HDL to LDL/VLDL
# Format: cell-free
Schema: pIC50 number; meaning minus log10 of the concentration expressed in molar units.

C[C@@H](O)CN[C@@](Cc1ccccc1)(c1cc(F)cc(C(F)(F)F)c1)c1ccc(Cl)cn1 ... 4.49

Lookup result for O[C@H](CN[C@@](Cc1ccccc1)(c1cc(F)cc(OC(F)(F)C(F)F)c1)c1ccc(Cl)cn1)C(F)(F)F ; measured pIC50: 6.05

For this molecule ( CC(C)Oc1cc([C@@](Cc2ccccc2)(NC[C@@H](O)C(F)(F)F)c2cc(F)cc(OC(F)(F)C(F)F)c2)ccc1F ), measured pIC50 is 7.26

pIC50 reading for OC[C@@H](O)CN[C@@](Cc1ccccc1)(c1cc(F)cc(C(F)(F)F)c1)c1ccc(Cl)cn1 : 4.01

So for O=C(N[C@@](Cc1ccccc1)(c1cc(F)cc(C(F)(F)F)c1)c1ccc(Cl)cn1)c1ccc(F)c(C(F)(F)F)c1 , the logged pIC50 turned out to be 5.15

Lab book: pIC50 of CC(C)Oc1cc([C@@](Cc2ccccc2)(NC[C@H](O)CC(F)(F)F)c2cc(F)cc(OC(F)(F)C(F)F)c2)ccc1F noted as 7.31

----------
# test.summary: Aqueous solubility of compound
# Type: physicochemical
# measurement.context: buffer
metric.name: solubility

Below: 9 compounds and their reported solubility.
OC[C@H](O)CN[C@@](Cc1ccccc1)(c1cc(F)cc(C(F)(F)F)c1)c1ccc(Cl)cn1 ... 44 µg/mL
O=C(N[C@@](Cc1ccccc1)(c1cc(F)cc(C(F)(F)F)c1)c1ccc(Cl)cn1)c1ccc(F)c(C(F)(F)F)c1 ... < 1 µg/mL
OC(CN[C@@](Cc1ccccc1)(c1cc(F)cc(C(F)(F)F)c1)c1ccc(Cl)cn1)CC(F)(F)F (stereo not given in full) ... < 1 µg/mL
C[C@@H](O)CN[C@@](Cc1ccccc1)(c1cc(F)cc(C(F)(F)F)c1)c1ccc(Cl)cn1 ... < 1 µg/mL
CO[C@H](CN[C@@](Cc1ccccc1)(c1cc(F)cc(C(F)(F)F)c1)c1ccc(Cl)cn1)C(F)(F)F ... < 1 µg/mL
C[C@H](O)CN[C@@](Cc1ccccc1)(c1cc(F)cc(C(F)(F)F)c1)c1ccc(Cl)cn1 ... < 1 µg/mL
CC(=O)O[C@H](CN[C@@](Cc1ccccc1)(c1cc(F)cc(C(F)(F)F)c1)c1ccc(Cl)cn1)C(F)(F)F ... < 1 µg/mL
O[C@H](CN[C@@](Cc1ccccc1)(c1cc(F)cc(C(F)(F)F)c1)c1ccc(Cl)cn1)C(F)(F)F ... < 1 µg/mL
O=C(CN[C@@](Cc1ccccc1)(c1cc(F)cc(C(F)(F)F)c1)c1ccc(Cl)cn1)CC(F)(F)F ... < 1 µg/mL

Please find the next compound below.
Query OC[C@@H](O)CN[C@@](Cc1ccccc1)(c1cc(F)cc(C(F)(F)F)c1)c1ccc(Cl)cn1 yields solubility of 37 µg/mL

----------
# measurement.target: Voltage-gated inwardly rectifying potassium channel KCNH2 (Homo sapiens)
# test.summary: Inhibition of recombinant human ERG flux expressed in HEK293 cells by patch clamp assay
# Format: cell-based
metric.name: IC50

// below: answered compounds
CC(C)Oc1cc([C@@](Cc2ccccc2)(NC[C@@H](O)C(F)(F)F)c2cc(F)cc(OC(F)(F)C(F)F)c2)ccc1F ... 21 µM
CC(C)Oc1cc([C@@](Cc2ccccc2)(NC[C@H](O)C(F)(F)F)c2cc(F)cc(OC(F)(F)C(F)F)c2)ccc1F ... 12 µM

Lab note: measured IC50 of CC(C)Oc1cc([C@@](Cc2ccccc2)(NC[C@H](O)CC(F)(F)F)c2cc(F)cc(OC(F)(F)C(F)F)c2)ccc1F was 28 µM

Field IC50 (entry CC(C)Oc1cc([C@@](Cc2ccccc2)(NC[C@@H](O)CC(F)(F)F)c2cc(F)cc(OC(F)(F)C(F)F)c2)ccc1F ) reads 23 µM

----------
# test.summary: Metabolic stability in rat liver microsomes assessed as compound remaining at 3 uM after 10 mins by UV absorbance method
# Format: ADME
# measurement.context: read-out: Stability
metric.name: remaining at 10 min, 3 µM (%)
Unit % implied. Number only.

Observe how each entry below is paired with its result.
OC(CN[C@@](Cc1ccccc1)(c1cc(F)cc(OC(F)(F)C(F)F)c1)c1ccc(Cl)cn1)CC(F)(F)F (some centres not stated) ... 87
O=C(N[C@@](Cc1ccccc1)(c1cc(F)cc(C(F)(F)F)c1)c1ccc(Cl)cn1)c1ccc(F)c(C(F)(F)F)c1 ... 97
CC(C)Oc1cc([C@@](Cc2ccccc2)(NC[C@@H](O)C(F)(F)F)c2cc(F)cc(OC(F)(F)C(F)F)c2)ccc1F ... 83
O[C@H](CN[C@@](Cc1ccccc1)(c1cc(F)cc(C(F)(F)F)c1)c1ccc(Cl)cn1)C(F)(F)F ... 88
O[C@H](CN[C@@](Cc1ccccc1)(c1cc(F)cc(OC(F)(F)C(F)F)c1)c1ccc(Cl)cn1)C(F)(F)F ... 84

response.value for CC(C)Oc1cc([C@@](Cc2ccccc2)(NC[C@H](O)CC(F)(F)F)c2cc(F)cc(OC(F)(F)C(F)F)c2)ccc1F (field: remaining at 10 min, 3 µM) = 83

The recorded remaining at 10 min, 3 µM for OC(CN[C@@](Cc1ccccc1)(c1cc(F)cc(C(F)(F)F)c1)c1ccc(Cl)cn1)CC(F)(F)F (some centres not stated) is 69
